Hi there, I'd appreciate the recorded TGI for every entry that follows.
system: M14 melanoma; experiment: NCI tumour cell line growth inhibition, 48 h

Given the entry CC(=O)Oc1ccccc1-c1cc2ccccc2oc1=O , report its measured TGI.
> 100 µM

Same for O=c1cc(-c2ccccc2)[nH]c2cc3c(cc12)OCO3
> 80.2 µM

Same for CC1=NC(=Cc2ccc(O)cc2)C(=O)N1n1c(-c2ccccc2)nc2ccccc2c1=O
> 100 µM

Same for N#CC1(C2SCCS2=O)C2=C(C(=O)c3ccccc3C2=O)N2CCCC21 (stereo not drawn)
2.77 µM

Same for Cc1n(Cc2ccc3ccccc3c2)cc[n+]1Cc1ccc2ccccc2c1
3.46 µM

Same for CN(C)C(=O)NCCN1CCCCCc2ccccc21
> 100 µM

Same for CC1=C(Br)C(Br)=C(C)S1=O
33.8 µM

Same for CC(=O)OC1CC2c3cccc4c3C(CC2N(C)C1=O)CN4C(=O)c1ccccc1 (stereo not drawn)
55.8 µM

Same for O/N=C\c1c(O)ccc2ccccc12
> 100 µM

Same for CCN(CC)CCNCC(=O)Oc1ccc(/C=C/C(=O)CC(=O)/C=C/c2ccc(OC(=O)CNCCN(CC)CC)c(OC)c2)cc1OC
11 µM

Same for NC(CCC(=O)NC(CSC(=O)N(O)c1ccc(Br)cc1)C(=O)NCC(=O)O)C(=O)O (stereo not drawn)
> 100 µM

Same for Cc1cccc(/C=N/NC(=S)NCCc2ccccn2)n1
33.6 µM

Same for O=S(O)CCCCSSCc1ccccc1CSSCCCCS(=O)O
26.7 µM

Same for Cc1cccc2c1Oc1cc(Cl)ccc1C2NC(=O)CCN1CCOCC1 (stereo not drawn)
> 100 µM

Same for O=C(NCCCNC(=O)c1ccc2c(O)c(O)ccc2c1)c1ccc2c(O)c(O)ccc2c1
78.8 µM

Same for N#C/C(=C\c1ccc(O)c(O)c1)C(N)=O
> 100 µM

Same for O=c1[nH]c2cc(Cl)ccc2n1C1CCN(CCCC(c2ccc(F)cc2)c2ccc(F)cc2)CC1
3.05 µM

Same for Cc1c(C2Nc3ccccc3C2C)[nH]c2ccccc12 (stereo not drawn)
38.7 µM

Same for Cc1[nH][nH]c(=O)c1C=Nc1ccc(-c2nc3ccccc3[nH]2)cc1
50.9 µM

Same for O=C(CC(c1ccccc1)N1CCCCC1)c1ccccc1 (stereo not drawn)
42.3 µM

Same for C=CCNC1=C2C[C@@H](C)C[C@@H](OC)[C@@H](OC(=O)CCCN)[C@H](C)/C=C(\C)[C@@H](OC(N)=O)[C@H](OC)/C=C\C=C(/C)C(=O)NC(=CC1=O)C2=O
28.7 µM

Same for COC(COC(=O)N1CCN(C=O)CC1)C1=C(N2CC2)C(=O)C(C)=C(N2CC2)C1=O (stereo not drawn)
1.34 µM

Same for O=C1c2cc3c(cc2CC12Cc1cc4c(cc1C2=O)CCC4)CCCC3 (stereo not drawn)
> 100 µM

Same for O=C1NC(=O)C(c2c[nH]c3cc(Br)ccc23)=C1c1cn(C(c2ccccc2)(c2ccccc2)c2ccccc2)cn1
29.9 µM

Same for COC(=O)C(=C/c1ccc(OC)cc1)/C(C(=O)O)=C(/C)c1ccccc1
> 100 µM

Same for CCN(CC)CCOc1ccc(/C(=C(\C)c2ccc(F)c(OC)c2)c2ccc(Cl)cc2)cc1
5.64 µM

Same for N#Cc1c(-c2ccccc2)[nH]c2ccccc2c1=O
> 100 µM

Same for CCOC(=O)C(N=Nc1ccc(S(N)(=O)=O)cc1)C(C)=O (stereo not drawn)
> 100 µM

Same for Cc1cccc(NC(=O)/C=C/c2ccc(N(CCC#N)CCC#N)cc2C)c1
> 100 µM

Same for CCN(CC)CCn1nc(N)c2nc3cc(Cl)ccc3nc21
> 100 µM

Same for CC1(C#N)CC(C)(C)C(/C=C2/CC(C)(C)C(/C=C3/OC(=N)CC3(C)C)=N2)=N1 (stereo not drawn)
85.8 µM

Same for CCOC(=O)c1nc2c(Cl)c3ncccc3cc2[nH]c1=O
> 100 µM

Same for CCN(CC)CC(C)(C)C(=O)/C=C/c1ccc(Cl)c(Cl)c1
3.39 µM

Same for CCOC(=O)CCc1c(C)c2c(OC(C)=O)cc(OC(C)=O)cc2oc1=O
> 100 µM

Same for CN(C)c1ccc2nc3ccc(=O)cc-3sc2c1
10.8 µM

Same for CCOC(=O)[C@H](CCCNC(=O)OC(C)(C)C)NCc1ccc(OC)c(OC)c1
> 100 µM

Same for O=C(C[n+]1ccccc1)NNC(=O)/C(=C/c1ccc2c(c1)OCO2)NC(=O)c1ccccc1
> 100 µM

Same for NC1CCCC[C@H]1N.N[C@@H]1CCCC[C@@H]1N.O=C(P(=O)([O-])[O-])P(=O)([O-])[O-].[Pt+4].[Pt+4]
> 100 µM

Same for O=C(O)c1cccc(OCCO)c1
> 100 µM

Same for COc1ccc(C(=O)C(CO)Oc2ccccc2OC)cc1OC (stereo not drawn)
> 100 µM

Same for O=C(C(=O)N1CCc2ccccc21)c1c[nH]c2ccccc12
> 10 µM

Same for N#Cc1sc2nc(/C=C3/C=CC=CC3=O)c(O)n2c1N
> 100 µM

Same for CN(Nc1cc(=O)[nH]c(=O)[nH]1)c1ccccc1
> 100 µM
